- Tested on: K4 kissing-loop RNA reporter
- EXPERIMENT: apparent KD of K4 kissing-loop reporter; higher = weaker reporter binding
- EXPERIMENTAL PARAMETERS: Eterna round: R107; input ligand: arginine 13.2 mM
MEASURED ATTRIBUTE: apparent KD of K4 kissing-loop reporter (nM)
Just the number please, in nM, no unit attached.

[
  {
    "PRIMARY SEQUENCE": "AAGGUCACCACUACAGUGAUGUUGUAGGAGCAGGAUAUGCAGAAAUGCAGAAGGGCUCGCUCCAGGUGACCGAAUGAAACAUUCA [Omei KL FMN A SS A v4]",
    "VALUE REPORTED": 341
  },
  {
    "PRIMARY SEQUENCE": "GAUACCACGUUAGAUACCAGCUUCGUUGACUUGGGUAGUAGUCGAACUUCAGUGAUGUUGAGCCCUUGGCAGCUACAGAUGUGCG [theeternabot_exclusion_KL_Theo_B_38]",
    "VALUE REPORTED": 311
  },
  {
    "PRIMARY SEQUENCE": "UGAUACCAGGCGGCCGCCACUCCUACAGGUCAAAGACCUGUAAAGCUGGUUCUCCAGUGAUGUUGGAGGACCGGGCCUGGUAUCU [FiskerMod 29 - Jieux - Exclusion - Tryptophan B]",
    "VALUE REPORTED": 156
  },
  {
    "PRIMARY SEQUENCE": "GCGUAGGAAGAAGGAUAUCACAGGAUGCCACGUUAGUGAUGUUAAUUUGGUUCAGCGCGAUUCUGAUGAGAAGGUCUUUUAUGAU [theeternabot_sameState_KL_FMN_B_47]",
    "VALUE REPORTED": 300
  },
  {
    "PRIMARY SEQUENCE": "GCCGUACGCAUGGAUACCAGCACAGGCCGAAGUGAUGUUUCGUGCGUAUAUUUGUGCUACUGCCCUUGGCAGCCAUGCGUACGGC",
    "VALUE REPORTED": 66.9
  }
]

Recorded apparent KD of K4 kissing-loop reporter (sequence AGAACUGUCUGAGAUACCAGCUAAGGAGUGAUGUUCCUAGGUCCACGAAAGUGGACCCAUAGCCCUUGGCAGCUCAGACAGUUCA [#23 K4 Theophylline B Same State] ): 833

Recorded apparent KD of K4 kissing-loop reporter (sequence UUAUAUAUAUUAGAUACCAGUUUAAUGGAAACAAAUUAUGUUAUGAGUGAUGUUCAUGUAAGCCCUUGGCAGCUGGUAUGGGUUU [KL-XTheo-B18] ): 305

Recorded apparent KD of K4 kissing-loop reporter (sequence AAAAUUGCGGUCGAAAGAACUUCUUGCAUACGAGGACCGGUACGGCCGCCACUCGAGUCAAGUGAUGUUUGAUAAUCUAUUAUUA [JR_ExcTryptoA_Sub012] ): 225

Recorded apparent KD of K4 kissing-loop reporter (sequence AAGUGUGUGGCGGCCGCCACUAGAAUCCAGUGAUGUUGGAGAUAUCUCGUAAGAGAUAUCCGCCAUAGGACCGGGCCAUAUAGAA [Same State - Tryptophan B (Freestyle 15)] ): 720

Recorded apparent KD of K4 kissing-loop reporter (sequence CGUGAGUGCCGACGGUCAUCGGUCCAUGCACGAGGACCGGUACGGCCGCCACUCGAGCGUGGCAGUGAUGUUGCCAGCGCACUAA [Oninvexece] ): 89.5

Recorded apparent KD of K4 kissing-loop reporter (sequence AGUACGGACACGGCCGCCACUCAGAAGAAGACAGUAGUGAUGUUACUGAUGGUGAGAAUAAUAAAGAGGACCGGGUGUCGUGCAA [#05 K4 Tryptophan B Same State] ): 191

###

- Test system: K4 kissing-loop RNA reporter;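 further: bound reporter read as fluorescence of individual clusters on recovered sequencing chips by microscopy, with normalized cluster intensities fitted with a binding model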
- EXPERIMENT: apparent KD of K4 kissing-loop reporter; higher = weaker reporter binding
- EXPERIMENTAL PARAMETERS: Eterna round: R107; input ligand: none
apparent KD of K4 kissing-loop reporter by entry:
Just the number please, in nM, no unit attached.

[
  {
    "PRIMARY SEQUENCE": "UCCUAGGACUUCAGGCGAAAGCCCUGCGAAGGAGCGUGCGAAAGCACAGGUAGGUCGCGCAGUGAUGUUGCACCUAGGUAAUAAA [#SwitchBubble 20 #K4Late]",
    "UNIT ANNOTATION": "nM",
    "VALUE REPORTED": 489
  },
  {
    "PRIMARY SEQUENCE": "CGUGAGUGCCGACGGUCAUCGGUCCAUGCACGAGGACCGGUACGGCCGCCACUCGAGCGUGGCAGUGAUGUUGCCAGCGCACUAA [Oninvexece]",
    "UNIT ANNOTATION": "nM",
    "VALUE REPORTED": 101
  },
  {
    "PRIMARY SEQUENCE": "GGAUAGGACAGAGGAUAUGGACAGUCUACAAAGUAGGCUGAAAAUCCUUGAAUGGAAGUGAUGUUUCUAGAAGGCUGUCCUAUCG [FmnBX 19 - #SwitchBubble #StaticStem #Palindromic]",
    "UNIT ANNOTATION": "nM",
    "VALUE REPORTED": 190
  },
  {
    "PRIMARY SEQUENCE": "UCUGUGUCCGCGGCCGCCACUCGGGACUAAGUGAUGUUUAGUCCUUCAGAAUAAAGAAGUGAUGAGAGGACCGGGCGAUCGCACC [theeternabot_sameState_KL_Trp_B_2]",
    "UNIT ANNOTATION": "nM",
    "VALUE REPORTED": 99.6
  },
  {
    "PRIMARY SEQUENCE": "AAGGUAUCACCAACUUGUAACAUAGGUGAUACCAGCAUCGAAAGAUGCCCUUGGCAGCACCAACUUGCAGUGAUGUUGCAAGUAA [(T)'-(H)'-(T1)-(T2)-(H1)-(H2)_Design11]",
    "UNIT ANNOTATION": "nM",
    "VALUE REPORTED": 152
  }
]

Consider the additional sequence presented here.
Entry AAUGUAAUGACGGCCGCCACUGAUUACCAGUGAUGUUGGUAAAGAACUUUAUAAGUCCUGGAAACCAGGACCGGGUCAACGGUCC [Tryp B Ex t1] ; assay system K4 kissing-loop RNA reporter; apparent KD of K4 kissing-loop reporter recorded at 318

###

apparent KD of MS2 coat protein by entry:
- Test system: MS2 coat protein
- EXPERIMENT: apparent KD of MS2 coat protein; higher = weaker reporter binding
- EXPERIMENTAL PARAMETERS: Eterna round: R107; input ligand: arginine 13.2 mM
Just the number please, in µM, no unit attached.

Reference set, count: 5
[
  {
    "PRIMARY SEQUENCE": "GCUAGGUCAUCGGCCGCCACUAACGACGGUUCGAACAUGAGGAUCACCCAUGUGCCACAUGCGCAUAGGACCGGGAUGACCUAGC [SSTB NP+V+V2 #6]",
    "UNIT ANNOTATION": "µM",
    "apparent KD of MS2 coat protein": 0.0357
  },
  {
    "PRIMARY SEQUENCE": "UCGUGUCUAUUGGUUUAGCUUUAAUCGUUACGAGGACCGGUACGGCCGCCACUCGAUUUAACAUGAGGAUCACCCAUGUACUCUC [JR_ExcTryptoA_Sub012]",
    "UNIT ANNOTATION": "µM",
    "apparent KD of MS2 coat protein": 0.0175
  },
  {
    "PRIMARY SEQUENCE": "UCUUGGUCCGCAAGGACCUUGAGUUGCGAUACCAGCACGGUAACGUGCCCUUGGCAGCGCACAUGAGGAUCACCCAUGUGGUGUU [#1 Exclusion - Theophylline A Attempt #16 (HarryS)]",
    "UNIT ANNOTATION": "µM",
    "apparent KD of MS2 coat protein": 0.0823
  },
  {
    "PRIMARY SEQUENCE": "UCUGCCGCGGCUCCGAUCCUCCUGUAGUUCCGAGGACCGGUACGGCCGCCACUCGUAGCACAUGAGGAUCACCCAUGUCUUGCGG [Tiqurabira]",
    "UNIT ANNOTATION": "µM",
    "apparent KD of MS2 coat protein": 0.0121
  },
  {
    "PRIMARY SEQUENCE": "AAUGUAUGGCACAUGAGGAUCACCCAUGUGCGAGGACCGGUACGGCCGCCACUCGGUCCUGGGUUCUUAUUACUAUACAUUAAUG [XTryp A #15]",
    "UNIT ANNOTATION": "µM",
    "apparent KD of MS2 coat protein": 0.00978
  }
]

Recorded apparent KD of MS2 coat protein (sequence UCUUUCUUUGUAGAUACCAGCGUGUUAUCUUUCUUUUGACAUGAGGAUCACCCAUGUAUAUGCCCUUGGCAGCUACAUAUUCUUU [#01 Same State - Theophylline B] ): 0.0181
